Hello, the source for this data is PubChem BioAssay (NCI), in case you need it.

Tested on: SW-620 colon
assay-text: NCI tumour cell line growth inhibition, 48 h
The following molecules are listed with their measured TGI values.
measured-parameter: TGI

- CSC1=Nc2c(c(C)c(-c3ccccc3)n2CCCN2CCCCC2)C2=NC(=O)C[C@H](C)N12: 18.2 µM
- c1ccc(N2N=C(c3cccc(Nc4ccncc4)c3)CC2c2ccc3c(c2)OCO3)cc1 (centres undefined): 2.54 µM
- CCCCCCCCCCCCCCCCCCNc1ccn(C2OC(COP(=O)(O)OCC3OC(n4cc(C)c(=O)[nH]c4=O)CC3F)C(O)C2O)c(=O)n1 (centres undefined): 12.3 µM
- CC(=O)OC(CN1CCN(c2ccccn2)CC1)Cn1sc2nc(C)cc(C)c2c1=O (centres undefined): > 100 µM
